Molecular target: hSSTR-1 (Homo sapiens, UniProt P30872)
Construct: expressed in transfected cells; host or cells: CHO-K1
Sequence (P30872 whole entry): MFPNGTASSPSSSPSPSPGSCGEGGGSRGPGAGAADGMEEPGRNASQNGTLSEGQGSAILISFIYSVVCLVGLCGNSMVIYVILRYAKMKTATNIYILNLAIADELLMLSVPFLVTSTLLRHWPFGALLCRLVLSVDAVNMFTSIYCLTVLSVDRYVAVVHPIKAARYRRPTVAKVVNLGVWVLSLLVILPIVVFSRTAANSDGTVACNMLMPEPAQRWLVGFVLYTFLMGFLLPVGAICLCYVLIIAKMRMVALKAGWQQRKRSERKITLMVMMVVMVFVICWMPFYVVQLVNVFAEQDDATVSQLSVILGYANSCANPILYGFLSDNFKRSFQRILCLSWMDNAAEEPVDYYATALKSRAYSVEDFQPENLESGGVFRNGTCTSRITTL
Assay: Somatostatin receptor radioligand binding, hSSTR-1 (CHO-K1 membranes)
Conditions: read-out: Ki hSSTR1 ± (SEM)
pKi: −log10 of the molar value.
observable: pKi

Enquiry: Quote hSSTR-1 (Homo sapiens, UniProt P30872) pKi for entry CC[C@@H]1NC(=O)[C@H](CCCCN)NC(=O)[C@@H](Cc2c[nH]c3ccccc23)NC(=O)[C@H](Cc2ccc(O)cc2)NC(=O)[C@@H](NC(=O)[C@@H](Cc2ccccc2)NC(=O)CN2CCN(CCNC(=O)COCCOCCNC(=O)COCCOCCNC(=O)COCCOCCNC(=O)COCCOCCNC(=O)CCC(=O)N[C@@H](Cc3ccccc3)C(=O)O[C@]3(CC)C(=O)OCc4c3cc3n(c4=O)Cc4cc5ccccc5nc4-3)CC2)CSSC[C@@H](C(=O)N[C@H](C(N)=O)[C@@H](C)O)NC1=O [Example 10] .
Return: ≤ 6.00
